Consider the following pKi data for Alpha-1A adrenergic receptor (Rattus norvegicus), collected from several reports.
Tgt: Alpha-1A adrenergic receptor (Rattus norvegicus)
Sequence (P43140 whole entry): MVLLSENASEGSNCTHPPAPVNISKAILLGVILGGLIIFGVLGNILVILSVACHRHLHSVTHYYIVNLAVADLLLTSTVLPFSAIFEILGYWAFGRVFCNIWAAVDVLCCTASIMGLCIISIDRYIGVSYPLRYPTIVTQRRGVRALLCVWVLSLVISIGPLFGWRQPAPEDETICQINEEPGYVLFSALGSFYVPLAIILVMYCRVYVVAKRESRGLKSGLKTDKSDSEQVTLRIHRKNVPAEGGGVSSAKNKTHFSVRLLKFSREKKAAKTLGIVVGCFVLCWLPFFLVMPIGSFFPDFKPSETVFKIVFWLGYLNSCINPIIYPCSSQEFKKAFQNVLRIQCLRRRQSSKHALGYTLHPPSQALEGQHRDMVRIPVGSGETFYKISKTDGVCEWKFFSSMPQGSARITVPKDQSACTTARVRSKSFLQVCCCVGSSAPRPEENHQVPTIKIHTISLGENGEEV
pKi: −log10 of the molar value.

{"columns": ["Compound", "Modifier", "pKi"],
 "data": [
  ["COc1cccc(OC)c1OCCNCC1Oc2ccccc2OC1c1ccccc1 (stereo not given)", "=", 8.68],
  ["Nc1ncnc2nc(-c3ccc(N4CCOCC4)nc3)cc(-c3cccc(Br)c3)c12", "<", 5.00],
  ["CSc1ccc([C@H]2CN3CCC[C@H]3c3ccccc32)cc1", "=", 6.56],
  ["O=C(c1ccc(F)cc1)C1CCN(CCn2c(=O)[nH]c3ccccc3c2=O)CC1", "=", 7.14],
  ["CN(C)C1CCc2[nH]c3ccc(NC(=O)c4ccc(F)cc4)cc3c2C1 (stereo not given)", "=", 5.30]
]}
